experimentNotes: Lymphoblast assay, effects on cell growth, SupT-1 T-cell line
Type: cell-based
conditionsUsed: human, supt-1 cells, AICA riboside alone, SUP T-1, read-out: reduction in T-cell growth
experimentalReadout: inhibition at 500 µM

{"columns": ["compound", "experimentalReadout", "testResult"],
 "data": [
  ["NC(=O)c1ncn([C@@H]2O[C@H](CO)[C@@H](O)[C@H]2O)c1N [AICA riboside]", "inhibition at 500 µM", "30 to 50%"]
]}
